Biological target: T1, CRBN, Q96SW2;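 also: pooled lentiviral library of zinc finger degron-EGFP fusions in mCherry-positive Jurkat cells, FACS-sorted after compound exposure, with degron abundance counted by next-generation sequencing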
T1 chain: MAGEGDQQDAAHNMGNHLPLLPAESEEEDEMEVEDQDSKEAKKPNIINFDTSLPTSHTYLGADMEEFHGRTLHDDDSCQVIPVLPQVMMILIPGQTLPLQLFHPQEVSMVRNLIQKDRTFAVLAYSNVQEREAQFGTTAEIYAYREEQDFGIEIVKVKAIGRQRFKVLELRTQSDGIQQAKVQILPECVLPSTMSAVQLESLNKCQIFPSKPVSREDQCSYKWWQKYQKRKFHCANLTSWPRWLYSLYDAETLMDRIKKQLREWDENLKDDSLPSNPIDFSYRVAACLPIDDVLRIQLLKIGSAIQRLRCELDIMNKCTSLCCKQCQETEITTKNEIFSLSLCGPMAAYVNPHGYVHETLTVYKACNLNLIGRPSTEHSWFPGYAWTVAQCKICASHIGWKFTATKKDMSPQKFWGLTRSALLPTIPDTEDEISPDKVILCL
Assay: log2 fold change of degron read counts, EGFP-low vs EGFP+ sorted cells (limma voom), compound-induced degradation; higher = more compound-induced degradation of the degron-EGFP fusion; degrons are variants of IKZF1/3 zinc finger 2; compound dose not given here
Conditions: Jurkat; 18 h; compound: compound 22 (5-morpholino-thalidomide)
Whole data set: some 8,300 sequences, median “log2 fold change of degron read counts, EGFP-low vs EGFP+ sorted cells (limma voom), compound-induced degradation” near -1.1, cut for the highest 2% near 3.2. What follows is part of a selection rich in the highest values, with near analogues and random picks from the rest.
sequences and their reported log2 fold change of degron read counts
Provide a numeric answer; units are not to be included.

seqString: FTCPQCGATFTQKGNLLRHIKL [46F_47T_49P_50Q_52G_53A_54T_55F_67L_, Q9UKT9]
measuredNumber: -0.214

Would you mind telling me what log2 fold change of degron read counts value was observed for LECPICGFSCTQKGNLLRHIKL [46L_47E_49P_50I_52G_53F_54S_55C_67L_, Q9UKT9] ?
0.453

Next record, please: FRCEICGRAFTQKGNLLRHIKL [46F_47R_49E_50I_52G_53R_54A_55F_67L_, Q9UKT9]
-1.99

What do we get for FNCNQCGHVFTQKGNLLRHIKL [46F_47N_49N_50Q_52G_53H_54V_55F_67L_, Q9UKT9] ?
-2.54

All figures here come from the supplement of paper PMC12645437.
